Catalogue of melting point values
// units = °C; emit number, no label

Recorded melting point, per entry:
>>> print(df.to_string())
                   compoundstring      valuetype  reading
0  FC(F)(F)c1ccc(Cl)c(C(F)(F)F)c1  melting point      -59
1       O=C(C=Cc1ccco1)C=Cc1ccco1  melting point     60.5

Now let's try a different one.
Exam item: Value lookup for melting point; key = CC(C)(S)C(=O)O
Marked response: 47

* * *

valueType: melting point

>>> df
                           compound        reading
0     CC(=O)c1ccc(OCc2ccc(F)cc2)cc1    79 to 80 °C
1  O=Cc1ccc(CN2C(=O)c3ccccc3C2=O)o1  125 to 126 °C

Exam item: Value lookup for melting point; key = CC12CCC(CC/C1=N\Nc1ccc([N+](=O)[O-])cc1[N+](=O)[O-])C2(C)C (stereo not drawn)
Marked response: 232 to 233 °C

* * *

Catalogue of melting point values
// units = °C; emit number, no label

In [3]: df
Out[3]:
               compoundstring      valuetype  reading
0  CC(=O)c1c(F)ccc(F)c1C(=O)O  melting point       86

Exam item: Value lookup for melting point; key = O=C(Cl)OCc1ccc([N+](=O)[O-])cc1
Marked response: 33

Exam item: Value lookup for melting point; key = C1CCC(CCCCCC2CCCCC2)CC1
Marked response: -13.6

Exam item: Value lookup for melting point; key = O=C1OC(c2ccccc2)=NC1=Cc1ccc(Cl)cc1Cl
Marked response: 180

* * *

valueType: melting point (°C)
// units = °C; emit number, no label

Recorded melting point, per entry:
>>> df
                                   molecule      valuetype  unitofmeasure  reading
0                                       CBr  melting point             °C    -93.7
1  CC12CCC(O)CC1CCC1C2CC(O)C2(C)C(C3=CC(=O)OC3)CCC12O (stereo not given)  melting point             °C      222
2  C#CC[C@H](NC(=O)OCC1c2ccccc2-c2ccccc21)C(=O)O  melting point             °C      175
3              CCCCO[Si](OCCCC)(OCCCC)OCCCC  melting point             °C      -80
4  O=[N+]([O-])c1ccccc1/C(O)=C(/C(=N\O)c1ccccc1)c1ccccc1  melting point             °C      164

Exam item: Value lookup for melting point; key = O=C(Nc1cccc(Cl)c1)C(C(F)(F)F)C(F)(F)F
Marked response: 154

Exam item: Value lookup for melting point; key = CCCCCCCCCCCCCCCCCCC1CCCCC1
Marked response: 41.6

* * *

valueType: melting point

Exam item: Value lookup for melting point; key = O=C(O)c1ccccc1Cn1cncn1
Marked response: 206 to 207 °C

Exam item: Value lookup for melting point; key = Cc1ccc(C=C(C#N)C#N)cc1
Marked response: 132 to 133 °C

Exam item: Value lookup for melting point; key = O=C(O)c1ccc2[nH]c3c(c2c1)CCCC3
Marked response: 266 to 268 °C

Exam item: Value lookup for melting point; key = CCCc1c(C)nc(NC(=O)NS(=O)(=O)c2cccs2)nc1Cl
Marked response: 171 to 173 °C

Exam item: Value lookup for melting point; key = OC(C1CCCCC1)(C1CCCCC1)C1CCCCC1
Marked response: 94 to 96 °C

Exam item: Value lookup for melting point; key = COC(=O)c1ccc(N2CCN(C(=O)OC(C)(C)C)CC2)cc1
Marked response: 166 to 167 °C

Exam item: Value lookup for melting point; key = CN1CCc2cc3c(cc2C(=O)Cc2ccc4c(c2C1)OCO4)OCO3
Marked response: 208 °C

Exam item: Value lookup for melting point; key = CC1C(=O)OC(C)(C)OC1=O
Marked response: 109 to 113 °C

Exam item: Value lookup for melting point; key = Cc1c(O)cccc1[N+](=O)[O-]
Marked response: 150 °C

Exam item: Value lookup for melting point; key = O=C(CN1CCNCC1)N1CCOCC1
Marked response: 63 to 65 °C

Exam item: Value lookup for melting point; key = CN1CCC(N(Cc2cccs2)c2ccccc2)CC1
Marked response: 95 °C

Exam item: Value lookup for melting point; key = Cc1nc(/C(C#N)=C/c2ccco2)sc1/N=N/c1c(Cl)cc(Cl)cc1Cl
Marked response: 156 °C

Exam item: Value lookup for melting point; key = NN=C(C(=O)c1ccccc1)c1ccccc1
Marked response: 147 to 151 °C

Exam item: Value lookup for melting point; key = Cc1cc(CO)nn1C
Marked response: 50 to 51 °C

* * *

valueType: melting point (°C)
// units = °C; emit number, no label

Recorded melting point, per entry:
>>> print(df.to_string())
                                   molecule  reading
0  Cc1cc(NS(=O)(=O)c2ccc(N)cc2)n(-c2ccccc2)n1      195
1                  CCOC(=O)c1ccccc1C(=O)OCC    -40.5
2                              Oc1cc(O)ncn1      300
3  CC/C(=N\O)C1CC2(C)CCC1C2(C)C (centres undefined)     92.5
4              CCOCN(C(=O)CCl)c1c(C)cccc1CC     10.6

Exam item: Value lookup for melting point; key = CC1=NCCS1
Marked response: -101

Exam item: Value lookup for melting point; key = O=P(OCC(Br)CBr)(OCC(Br)CBr)OCC(Br)CBr (centres undefined)
Marked response: 5.5

* * *

valueType: melting point

>>> print(df.to_string())
                             compoundstring      valuetype        reading
0  S=C(NN=Cc1c(-c2ccc(Cl)cc2)[nH]c2ccccc12)Nc1ccccc1  melting point  211 to 212 °C
1                           NC(=NO)c1ccccc1  melting point    75 to 77 °C
2  Cc1ccccc1NC(=S)c1cc(C(C)(C)C)c(O)c(C(C)(C)C)c1  melting point  257 to 258 °C

Exam item: Value lookup for melting point; key = [O-][N+](=Nc1ccccc1)c1ccc(N=Nc2ccccc2)cc1
Marked response: 130 to 131 °C

* * *

Catalogue of melting point values
// units = °C; emit number, no label

Recorded melting point, per entry:
>>> df
                             compoundstring  reading
0  CCn1c(=O)c(C=C2C(=O)NN=C2c2c(O)c3ccccc3n(C)c2=O)c(O)c2ccccc21      295
1                 CC1(C)C(=O)N(Cl)C(=O)N1Br      164
2  CC(=O)O[Si](OC(C)=O)(OC(C)(C)C)OC(C)(C)C       -4
3                                CCCCCCCCCN       -1
4  NS(=O)(=O)c1cc(C(=O)OCOC(=O)c2ccccc2)c(NCc2ccco2)cc1Cl      179
5    CN1CCN(CCCN2c3ccccc3Sc3ccc(Cl)cc32)CC1      228

Now let's try a different one.
Exam item: Value lookup for melting point; key = C[Si](C)(C)O[Si](C)(C)O[Si](C)(C)O[Si](C)(C)O[Si](C)(C)O[Si](C)(C)O[Si](C)(C)C
Marked response: -78

* * *

Lab note: anything with melting point below 90 °C is marked yes (1); values at 90 °C or higher are marked no (0).

                                   compound  labelvalue
0                     Nc1cccc(S(N)(=O)=O)c1      no (0)
1      COC(=O)C1(S(=O)(=O)c2ccc(Cl)cc2)CCC1     yes (1)
2  Cc1ccc(C)c(N/N=C(/C#N)c2nc3ccccc3c(=O)[nH]2)c1      no (0)
3               ClC(C(Cl)(Cl)Cl)C(Cl)(Cl)Cl     yes (1)
4  CC(C)(C)c1cc([N+](=O)[O-])cc([N+](=O)[O-])c1O      no (0)
5                       Oc1ccccc1CCc1ccccc1     yes (1)
6  C=C1CC2CC(OC(=O)c3ccccc3)CCC2(C)C2CCC3(C)C(OC(=O)c4ccccc4)CCC3C12 (stereo not given)      no (0)
7                           c1ccc(C2CC2)cc1     yes (1)
8  CC(=O)Nc1cccc2c1ccc1nc(-c3ccccc3)c(-c3ccccc3)nc12      no (0)
9                          COc1ccccc1C(N)=O      no (0)

Exam item: Below 90 °C on melting point? Entry N#CC(C#N)=C1Sc2nc3ccccc3nc2S1
Marked response: no (0)
